- tested.target: T1, His-tagged cynomolgus monkey B7-H3 (cynomolgus monkey)
- T1 chain: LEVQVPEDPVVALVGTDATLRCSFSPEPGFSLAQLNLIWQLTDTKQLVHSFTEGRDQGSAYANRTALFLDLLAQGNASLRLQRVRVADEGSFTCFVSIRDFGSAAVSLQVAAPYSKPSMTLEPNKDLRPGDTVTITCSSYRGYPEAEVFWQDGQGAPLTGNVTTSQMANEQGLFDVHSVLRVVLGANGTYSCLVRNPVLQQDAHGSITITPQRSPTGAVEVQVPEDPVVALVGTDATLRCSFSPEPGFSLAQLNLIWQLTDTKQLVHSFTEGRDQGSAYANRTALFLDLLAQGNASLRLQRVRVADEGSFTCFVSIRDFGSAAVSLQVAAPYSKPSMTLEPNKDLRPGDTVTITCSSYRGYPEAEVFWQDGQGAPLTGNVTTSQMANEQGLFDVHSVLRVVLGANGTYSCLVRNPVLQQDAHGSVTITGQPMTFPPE
- experiment.summary: ELISA, coated His-tagged antigen, scFv-Fc 1 ug/ml
Answer each item with its documented ELISA OD450 @ 1 ug/ml.
Kindly answer with a numeric value in OD450, unit omitted.

Qu. Query (binder): 40633p1.1.G11 (scFv, V domains shown, Tested as scFv-Fc (Expi293 supernatant)) VH: EVQLLESGGGLVQPGGSLRLSCAASGFTVSYYGMSWVRQAPGKGLEWVSVIKQDGSEEYYADSVKGRFTISRDNSKNTLYLQMNSPRAEDTAVYYCARHWNDYSNGMNVWGQGTTVTVSS VL: QSVLTQPPSASGTPGQRVTISCSGSTSNVGDRYVYWYQQLPGTAPKLLIYLDDQRPSGVPDRFSGSKSGTSASLAISGLQSEDEADYYCASWDASLNGWVFGGGTKLTVL ; field requested: ELISA OD450 @ 1 ug/ml
Ans. 1.72

Qu. Then this binder: 40579p1.B8 (scFv, V domains shown, Tested as scFv-Fc (Expi293 supernatant)) VH: EVQLLESGGGLVQPGGSLRLSCAASGFTFSDYYMSWVRQAPGKGLEWVSGISMSSTIYYADSVKGRFTISRDNSKNTLYLQMNSLRAEDTAVYYCARHRSPYQYRSMDVWGQGTTVTVSS VL: EIVLTQSPGTLSLSPGERATLSCRASQSVNSKLAWYQQKPGQPPSLLIYDASRRATGIPDRFSGSGSGTEFTLTISSLQSEDFAVYYCQQYNNWPPLTFGGGTKVEIK
Ans. 2.08

Qu. Then this binder: 40579p1.D8 (scFv, V domains shown, Tested as scFv-Fc (Expi293 supernatant)) VH: EVQLLESGGGLVQPGGSLRLSCAASGFTFSDYYMSWVRQAPGKGLEWVSSISISYGGTTYYADSVKGRFTISRDNSKNTLYLQMNSLRAEDTAVYYCARDRSPYQCRSMDVWGQGTTVTVSS VL: EIVLTQSPGTLSLSPGERATLSCRASQSIRSDLAWYQQKPGQAPRLLIYNTVTRATGVPDRFSGSGSGTEFTLTISSLQSEDFAVYYCQQYNSWPPLTFGGGTKVEIK
Ans. 1.87
